System: Caco-2
test: drug sensitivity score (DSS) for viability; higher = more toxic; extreme values may be limits of the assay
condition-label: 72 h

{"smi": "C(#Cc1nc2ncccc2nc1OCCN1CCCC1)c1ccccc1", "drug sensitivity score": 5.4}
{"smi": "O[C@H]1[C@H](O)[C@@H](O)[C@H](O)[C@@H](O)[C@H]1O", "drug sensitivity score": 1}
{"smi": "O=C(O)[C@H]1CN(C/C=C/P(=O)(O)O)CCN1", "drug sensitivity score": 0}
{"smi": "OB1OCc2cc(F)ccc21", "drug sensitivity score": 0}

====

System: Caco-2
test: cell viability relative to DMSO; higher = less toxic
condition-label: 72 h; 10000 nM
property: cell viability (%)

{"compound": "C/C=C1/[C@H](O[C@@H]2O[C@H](CO)[C@@H](O)[C@H](O)[C@H]2O)OC=C(C(=O)OC)[C@H]1CC(=O)OCCc1ccc(O)c(O)c1", "property": "cell viability", "recorded-number": 88.8}
{"compound": "Cc1cccc(C)c1NC(=O)CN1CCN(CCCC(c2ccc(F)cc2)c2ccc(F)cc2)CC1", "property": "cell viability", "recorded-number": 68.2}
{"compound": "NS(=O)(=O)c1ccc(C(=O)O)cc1 [carzenide]", "property": "cell viability", "recorded-number": 96.9}
{"compound": "CS(=O)(=O)c1ccc(-c2cc(Br)sc2-c2ccc(F)cc2)cc1", "property": "cell viability", "recorded-number": 88.2}
{"compound": "NC1=N[C@@](c2cccc(-c3cncnc3)c2)(c2ccnc(C(F)F)c2)c2cccc(F)c21", "property": "cell viability", "recorded-number": 97}
{"compound": "C[C@H](NC[C@H](O)CP(=O)(O)Cc1ccccc1)c1ccc(Cl)c(Cl)c1", "property": "cell viability", "recorded-number": 89.8}
{"compound": "Fc1ccc(C(OCCN2CCN(C/C=C/c3ccccc3)CC2)c2ccc(F)cc2)cc1", "property": "cell viability", "recorded-number": 83.5}
{"compound": "C1COC(NC(C2CC2)C2CC2)=N1", "property": "cell viability", "recorded-number": 104}
{"compound": "[O-][n+]1ccccc1[S-].[O-][n+]1ccccc1[S-].[Zn+2]", "property": "cell viability", "recorded-number": 22.9}

====

Test system: Calu-3
test: cell viability relative to DMSO; higher = less toxic
condition-label: 72 h; 1000 nM

{"compound": "O=C1NC(=O)c2cc(Nc3ccc(F)cc3)c(Nc3ccc(F)cc3)cc21", "cell viability (%)": 106}
{"compound": "CNC(=O)CN(CCN(CCN(CC(=O)[O-])CC(=O)NC)CC(=O)[O-])CC(=O)[O-].[Gd+3] [gadodiamide]", "cell viability (%)": 98.8}
{"compound": "Cc1ccc(-c2n[nH]c3c2C(c2cccc(O)c2)N(c2ccc(C(=O)O)cc2)C3=O)cc1 (stereo not given)", "cell viability (%)": 99.9}
{"compound": "CCOc1ccc(NC(=S)N2CCC(C(O)(c3ccccc3)c3ccccc3)CC2)cc1", "cell viability (%)": 104}
{"compound": "CCc1ccc(C(=O)C(C)CN2CCCCC2)cc1 (stereo not given)", "cell viability (%)": 101}

====

Test system: Vero E6
test: cell viability relative to DMSO; higher = less toxic
condition-label: 72 h; 10 nM
property: cell viability

{"compound": "CC(=O)O[C@H]1C[C@@H]2CC[C@@H]3[C@H](CC[C@@]4(C)[C@H]3C[C@H](N3CC[N+](C)(C)CC3)[C@@H]4OC(C)=O)[C@@]2(C)C[C@@H]1N1CC[N+](C)(C)CC1", "result": "94.7%"}
{"compound": "Nc1nnc(Sc2ncc([N+](=O)[O-])s2)s1", "result": "101%"}
{"compound": "Fc1ccc(C(OCCN2CCN(C/C=C/c3ccccc3)CC2)c2ccc(F)cc2)cc1", "result": "106%"}
{"compound": "Nc1ccn([C@H]2CC[C@@H](CO)O2)c(=O)n1", "result": "104%"}
{"compound": "C[C@]12C=CC(=O)C=C1CC[C@@H]1[C@@H]2[C@@H](O)C[C@@]2(C)[C@H]1CC[C@]2(O)C(=O)COP(=O)(O)O [prednisolone-sodium-phosphate]", "result": "103%"}
{"compound": "CC(C)N[C@H]1CCn2c(=O)[nH]c3cccc(c32)[C@@H]1O", "result": "99.5%"}
{"compound": "N#Cc1ccc(C(c2ccc(C#N)cc2)n2cncn2)cc1", "result": "106%"}
{"compound": "Cc1nccn1CC1CCc2c(c3ccccc3n2C)C1=O (stereo not drawn)", "result": "97.4%"}

====

Listed compounds paired with reported cell viability
Test system: Caco-2
test: cell viability relative to DMSO; higher = less toxic
condition-label: 72 h; 10 nM
property: cell viability (%)

{"compound": "CN1CCN(c2cc3c(cc2F)c(=O)c(C(=O)O)cn3-c2ccc(F)cc2)CC1", "target-of-assay": "Caco-2", "property": "cell viability", "scale-unit": "%", "recorded-number": 95.1}
{"compound": "Cc1cc(C(=O)Nc2cc(Oc3ccc4nc(NC(=O)C5CC5)cn4n3)ccc2C)n(C)n1", "target-of-assay": "Caco-2", "property": "cell viability", "scale-unit": "%", "recorded-number": 99}
{"compound": "O=C(O)Cn1nnc(-c2cc(N3CCC(Oc4cc(F)ccc4Br)CC3)no2)n1", "target-of-assay": "Caco-2", "property": "cell viability", "scale-unit": "%", "recorded-number": 106}
{"compound": "COc1c(C)cnc(Cn2cc(C#CCC(C)(C)O)c3c(Cl)nc(N)nc32)c1C", "target-of-assay": "Caco-2", "property": "cell viability", "scale-unit": "%", "recorded-number": 97.3}
{"compound": "CO/N=C(\\C(=O)N[C@@H]1C(=O)N2C(C(=O)[O-])=C(C[n+]3ccn4ncccc43)CS[C@H]12)c1nsc(N)n1", "target-of-assay": "Caco-2", "property": "cell viability", "scale-unit": "%", "recorded-number": 97.9}
{"compound": "C[C@@H]1CN(Cc2ncccn2)C[C@H]1c1nc2c(cnn2C2CCOCC2)c(=O)[nH]1", "target-of-assay": "Caco-2", "property": "cell viability", "scale-unit": "%", "recorded-number": 92.4}
{"compound": "COc1ccc(CCN2CCN(CCCc3ccccc3)CC2)cc1OC", "target-of-assay": "Caco-2", "property": "cell viability", "scale-unit": "%", "recorded-number": 95.6}
{"compound": "CCOC(=O)c1ccc(N)cc1", "target-of-assay": "Caco-2", "property": "cell viability", "scale-unit": "%", "recorded-number": 84.7}
{"compound": "Cc1c(N)nc([C@H](CC(N)=O)NC[C@H](N)C(N)=O)nc1C(=O)N[C@H](C(=O)N[C@H](C)[C@@H](O)[C@H](C)C(=O)N[C@H](C(=O)NCCc1nc(-c2nc(C(=O)NCCC[S+](C)C)cs2)cs1)[C@@H](C)O)[C@@H](OC1OC(CO)C(O)C(O)C1OC1OC(CO)C(O)C(OC(N)=O)C1O)c1cnc[nH]1 (stereo partly drawn)", "target-of-assay": "Caco-2", "property": "cell viability", "scale-unit": "%", "recorded-number": 93.8}
{"compound": "C=CCSCC1Nc2cc(Cl)c(S(N)(=O)=O)cc2S(=O)(=O)N1 (stereo not drawn) [althiazide]", "target-of-assay": "Caco-2", "property": "cell viability", "scale-unit": "%", "recorded-number": 96.8}
{"compound": "N#Cc1cc(CN2CCC(Nc3ncnc4sc(Cl)cc34)CC2)ccc1F", "target-of-assay": "Caco-2", "property": "cell viability", "scale-unit": "%", "recorded-number": 98.7}
{"compound": "CCn1cc(C(=O)O)c(=O)c2cc3c(cc21)OCO3", "target-of-assay": "Caco-2", "property": "cell viability", "scale-unit": "%", "recorded-number": 98.9}
{"compound": "COc1cc(N2CCC(O)CC2)ccc1Nc1cc(Nc2ccccc2S(=O)(=O)C(C)C)c2cc[nH]c2n1", "target-of-assay": "Caco-2", "property": "cell viability", "scale-unit": "%", "recorded-number": 92.2}
{"compound": "CC[N+](C)(CC)CCC[n+]1c(-c2ccccc2)c2cc(N)ccc2c2ccc(N)cc21 [propidium-iodide]", "target-of-assay": "Caco-2", "property": "cell viability", "scale-unit": "%", "recorded-number": 99.2}
{"compound": "CN(Cc1cc(Br)cc(Br)c1N)C1CCCCC1", "target-of-assay": "Caco-2", "property": "cell viability", "scale-unit": "%", "recorded-number": 109}
{"compound": "Nc1nccc(Oc2ccc(NC(=O)c3c[nH]cc(-c4ccc(F)cc4)c3=O)cc2F)c1Cl", "target-of-assay": "Caco-2", "property": "cell viability", "scale-unit": "%", "recorded-number": 104}
{"compound": "Cc1cccc(C)c1NC(=O)CN1CCN(CCCC(c2ccc(F)cc2)c2ccc(F)cc2)CC1", "target-of-assay": "Caco-2", "property": "cell viability", "scale-unit": "%", "recorded-number": 99.5}
{"compound": "O=C1OCCN1/N=C/c1ccc([N+](=O)[O-])o1", "target-of-assay": "Caco-2", "property": "cell viability", "scale-unit": "%", "recorded-number": 90.2}
{"compound": "Nc1ccc(S(=O)(=O)Nc2ccc(Cl)nn2)cc1", "target-of-assay": "Caco-2", "property": "cell viability", "scale-unit": "%", "recorded-number": 93.4}
{"compound": "CCOC(=O)N1c2ccc(C(F)(F)F)cc2[C@@H](N(Cc2cc(C(F)(F)F)cc(C(F)(F)F)c2)C(=O)OC)C[C@H]1CC", "target-of-assay": "Caco-2", "property": "cell viability", "scale-unit": "%", "recorded-number": 108}
{"compound": "CN[C@@H]1[C@@H](O)[C@@H](O[C@@H]2[C@@H](O)[C@H](O[C@H]3O[C@H](CN)[C@@H](O)[C@H](O)[C@H]3O)[C@@H](N)C[C@H]2NC(=O)[C@@H](O)CN)OC[C@]1(C)O", "target-of-assay": "Caco-2", "property": "cell viability", "scale-unit": "%", "recorded-number": 97}
{"compound": "CCCOCCn1c(=O)c(N2CCN(CCO)CC2)nc2cnc(-c3ccc(OC)nc3)cc21", "target-of-assay": "Caco-2", "property": "cell viability", "scale-unit": "%", "recorded-number": 92.3}
{"compound": "NC(=O)Cc1cccc(C(=O)c2ccccc2)c1N", "target-of-assay": "Caco-2", "property": "cell viability", "scale-unit": "%", "recorded-number": 94.9}
{"compound": "COCCOc1ccc(N2CCN(CCn3ncc4c3nc(N)n3nc(-c5ccco5)nc43)CC2)cc1", "target-of-assay": "Caco-2", "property": "cell viability", "scale-unit": "%", "recorded-number": 99}
{"compound": "CNCCc1ccc(O)c(O)c1 [deoxyepinephrine]", "target-of-assay": "Caco-2", "property": "cell viability", "scale-unit": "%", "recorded-number": 95.8}
{"compound": "CCn1c(=O)c2c(nc(/C=C/c3ccc(OC)c(OC)c3)n2C)n(CC)c1=O", "target-of-assay": "Caco-2", "property": "cell viability", "scale-unit": "%", "recorded-number": 89.7}
{"compound": "Cc1ncc([N+](=O)[O-])n1CC(O)CN1CCOCC1 (stereo not drawn)", "target-of-assay": "Caco-2", "property": "cell viability", "scale-unit": "%", "recorded-number": 92}
{"compound": "Cc1cc(C)c(NC(=O)N(Cc2ccc3c(c2)Cc2ccccc2-3)C2CCCCCC2)c(C)c1", "target-of-assay": "Caco-2", "property": "cell viability", "scale-unit": "%", "recorded-number": 100}
{"compound": "O=C1OC(OC(=O)c2cccnc2Nc2cccc(C(F)(F)F)c2)c2ccccc21 (stereo not drawn) [talniflumate]", "target-of-assay": "Caco-2", "property": "cell viability", "scale-unit": "%", "recorded-number": 96.9}
{"compound": "COc1cccc(N(C)C(=S)Oc2ccc3c(c2)CCCC3)n1 [liranaftate]", "target-of-assay": "Caco-2", "property": "cell viability", "scale-unit": "%", "recorded-number": 97.7}
{"compound": "Cc1ccc(Cl)c(OCC(O)CNC(C)(C)C)c1 (stereo not drawn)", "target-of-assay": "Caco-2", "property": "cell viability", "scale-unit": "%", "recorded-number": 89}
{"compound": "C[C@@H](NC(=O)c1ncnc(N)c1Cl)c1ncc(C(=O)Nc2cc(C(F)(F)F)c(Cl)cn2)s1", "target-of-assay": "Caco-2", "property": "cell viability", "scale-unit": "%", "recorded-number": 96.4}
{"compound": "CCn1c2ccccc2c2cc(CNC)ccc21", "target-of-assay": "Caco-2", "property": "cell viability", "scale-unit": "%", "recorded-number": 100}

Values from the supplement of paper PMC13380429
